Data origin, for the record: ChEMBL document CHEMBL1131280

# TARGET_UNDER_TEST: Metabotropic glutamate receptor 7 (Homo sapiens, UniProt Q14831)
# Sequence (Q14831 whole entry): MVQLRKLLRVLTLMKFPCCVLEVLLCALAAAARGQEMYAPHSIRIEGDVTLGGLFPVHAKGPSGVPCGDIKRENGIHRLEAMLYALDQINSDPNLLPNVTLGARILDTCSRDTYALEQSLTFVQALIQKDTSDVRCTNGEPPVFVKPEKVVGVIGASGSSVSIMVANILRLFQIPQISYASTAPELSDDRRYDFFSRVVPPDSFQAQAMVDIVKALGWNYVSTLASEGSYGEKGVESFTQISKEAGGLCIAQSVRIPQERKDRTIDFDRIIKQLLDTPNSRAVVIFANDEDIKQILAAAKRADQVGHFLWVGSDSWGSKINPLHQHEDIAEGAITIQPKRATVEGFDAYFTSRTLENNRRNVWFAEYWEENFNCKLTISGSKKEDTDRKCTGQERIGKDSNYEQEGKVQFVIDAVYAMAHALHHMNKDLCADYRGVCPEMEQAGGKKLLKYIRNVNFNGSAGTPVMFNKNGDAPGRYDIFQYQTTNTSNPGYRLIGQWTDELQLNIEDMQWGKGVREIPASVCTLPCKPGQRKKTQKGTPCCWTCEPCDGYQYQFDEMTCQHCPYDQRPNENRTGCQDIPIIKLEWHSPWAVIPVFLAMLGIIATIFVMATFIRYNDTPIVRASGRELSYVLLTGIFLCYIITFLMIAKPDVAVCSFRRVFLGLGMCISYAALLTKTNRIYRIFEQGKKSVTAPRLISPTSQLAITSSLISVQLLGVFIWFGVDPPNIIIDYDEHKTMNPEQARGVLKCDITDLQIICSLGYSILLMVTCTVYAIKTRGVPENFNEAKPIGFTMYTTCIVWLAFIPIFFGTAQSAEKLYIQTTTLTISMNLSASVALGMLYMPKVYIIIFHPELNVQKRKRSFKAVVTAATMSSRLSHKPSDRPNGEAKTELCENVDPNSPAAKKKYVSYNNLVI
# MEASUREMENT_DESCRIPTION: Tested for […] in non-neuronal cells (RGT) expressing human mGlu7a receptor by measuring L-AP4 (1000 uM of forskolin (15 uM)-stimulated cAMP formation
# Format: functional, cell-based
pIC50: −log10 of the molar value.
Quick reference: pIC50 of the listed items.

SMILES_STR	TARGET_UNDER_TEST	pIC50
N[C@@H](C[C@H](CCCC(c1ccccc1)c1ccccc1)C(=O)O)C(=O)O	Metabotropic glutamate receptor 7 (Homo sapiens, UniProt Q14831)	< 3.52
N[C@@H](C[C@H](CC(c1ccccc1)c1ccccc1)C(=O)O)C(=O)O	Metabotropic glutamate receptor 7 (Homo sapiens, UniProt Q14831)	< 3.52

====

# TARGET_UNDER_TEST: Metabotropic glutamate receptor 3 (Homo sapiens, UniProt Q14832)
# Sequence (Q14832 whole entry): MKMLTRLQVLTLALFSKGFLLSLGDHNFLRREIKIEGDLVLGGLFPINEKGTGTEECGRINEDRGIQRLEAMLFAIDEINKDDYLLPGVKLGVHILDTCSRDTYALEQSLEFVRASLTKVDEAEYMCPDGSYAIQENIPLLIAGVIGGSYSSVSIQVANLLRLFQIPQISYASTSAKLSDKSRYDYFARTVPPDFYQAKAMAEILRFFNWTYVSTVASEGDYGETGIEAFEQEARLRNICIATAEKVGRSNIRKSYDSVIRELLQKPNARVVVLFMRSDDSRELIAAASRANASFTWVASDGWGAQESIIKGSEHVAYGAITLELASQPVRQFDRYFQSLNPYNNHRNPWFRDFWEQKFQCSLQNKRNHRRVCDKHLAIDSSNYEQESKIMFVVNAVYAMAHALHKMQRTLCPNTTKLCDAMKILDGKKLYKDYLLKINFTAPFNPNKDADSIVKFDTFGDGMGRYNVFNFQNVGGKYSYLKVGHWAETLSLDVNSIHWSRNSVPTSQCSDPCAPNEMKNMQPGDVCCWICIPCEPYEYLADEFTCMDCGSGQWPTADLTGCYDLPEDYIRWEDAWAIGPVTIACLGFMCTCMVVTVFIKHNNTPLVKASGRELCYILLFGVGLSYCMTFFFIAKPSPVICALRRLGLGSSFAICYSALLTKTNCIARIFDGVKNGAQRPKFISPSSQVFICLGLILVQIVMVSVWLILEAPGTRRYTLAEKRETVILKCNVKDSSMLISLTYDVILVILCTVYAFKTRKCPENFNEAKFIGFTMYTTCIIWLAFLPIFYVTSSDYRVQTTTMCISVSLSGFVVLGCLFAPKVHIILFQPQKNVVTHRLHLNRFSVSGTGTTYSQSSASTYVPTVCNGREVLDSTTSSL
# MEASUREMENT_DESCRIPTION: Tested for […] in non-neuronal cells (RGT) expressing human Metabotropic glutamate receptor 3 by measuring ACPD (3 uM) induced inhibition of forskolin (15 uM)-stimulated cAMP formation
pIC50: −log10 of the molar value.
METRIC: pIC50

SMILES_STR	REPORTED_RESULT
N[C@@H](C[C@H](CCCC(c1ccccc1)c1ccccc1)C(=O)O)C(=O)O	4.52
N[C@@H](C[C@H](CC(c1ccccc1)c1ccccc1)C(=O)O)C(=O)O	5.21

====

Hi! I'm sharing some pIC50 results obtained with Glutamate receptor ionotropic, kainate 3 (Rattus norvegicus).
Sequence (P42264 whole entry): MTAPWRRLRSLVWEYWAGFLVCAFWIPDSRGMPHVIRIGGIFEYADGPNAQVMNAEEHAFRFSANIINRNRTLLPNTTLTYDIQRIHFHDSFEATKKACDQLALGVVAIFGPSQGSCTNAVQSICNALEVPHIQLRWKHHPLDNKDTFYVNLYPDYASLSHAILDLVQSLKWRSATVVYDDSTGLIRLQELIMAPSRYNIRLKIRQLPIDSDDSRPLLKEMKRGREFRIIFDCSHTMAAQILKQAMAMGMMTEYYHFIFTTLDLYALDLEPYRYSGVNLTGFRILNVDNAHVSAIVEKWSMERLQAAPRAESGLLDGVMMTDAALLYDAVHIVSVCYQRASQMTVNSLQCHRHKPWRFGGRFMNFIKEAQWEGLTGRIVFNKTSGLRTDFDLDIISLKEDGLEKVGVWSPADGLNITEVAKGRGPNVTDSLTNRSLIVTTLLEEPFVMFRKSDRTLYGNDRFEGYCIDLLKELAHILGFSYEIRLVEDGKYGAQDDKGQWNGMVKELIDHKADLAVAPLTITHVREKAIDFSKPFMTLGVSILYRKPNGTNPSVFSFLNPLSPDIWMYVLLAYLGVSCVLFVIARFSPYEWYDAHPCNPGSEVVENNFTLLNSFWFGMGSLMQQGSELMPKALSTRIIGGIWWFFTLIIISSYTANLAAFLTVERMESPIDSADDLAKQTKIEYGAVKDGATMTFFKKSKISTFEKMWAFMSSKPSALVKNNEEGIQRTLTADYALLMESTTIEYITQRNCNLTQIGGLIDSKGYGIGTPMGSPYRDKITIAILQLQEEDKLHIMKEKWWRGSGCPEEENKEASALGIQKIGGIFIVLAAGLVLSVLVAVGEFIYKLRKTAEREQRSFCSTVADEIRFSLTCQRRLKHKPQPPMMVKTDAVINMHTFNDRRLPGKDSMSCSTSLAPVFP
pIC50: −log10 of the molar value.
METRIC: pIC50

SMILES_STR	REPORTED_RESULT
N[C@@H](C[C@H](CCC(c1ccccc1)c1ccccc1)C(=O)O)C(=O)O	5.94
N[C@@H](C[C@H](CCCc1ccccc1)C(=O)O)C(=O)O	5.74
N[C@@H](C[C@H](CC(c1ccccc1)c1ccccc1)C(=O)O)C(=O)O	6.42

====

# TARGET_UNDER_TEST: Metabotropic glutamate receptor 1 (Homo sapiens)
# Sequence (Q13255 whole entry): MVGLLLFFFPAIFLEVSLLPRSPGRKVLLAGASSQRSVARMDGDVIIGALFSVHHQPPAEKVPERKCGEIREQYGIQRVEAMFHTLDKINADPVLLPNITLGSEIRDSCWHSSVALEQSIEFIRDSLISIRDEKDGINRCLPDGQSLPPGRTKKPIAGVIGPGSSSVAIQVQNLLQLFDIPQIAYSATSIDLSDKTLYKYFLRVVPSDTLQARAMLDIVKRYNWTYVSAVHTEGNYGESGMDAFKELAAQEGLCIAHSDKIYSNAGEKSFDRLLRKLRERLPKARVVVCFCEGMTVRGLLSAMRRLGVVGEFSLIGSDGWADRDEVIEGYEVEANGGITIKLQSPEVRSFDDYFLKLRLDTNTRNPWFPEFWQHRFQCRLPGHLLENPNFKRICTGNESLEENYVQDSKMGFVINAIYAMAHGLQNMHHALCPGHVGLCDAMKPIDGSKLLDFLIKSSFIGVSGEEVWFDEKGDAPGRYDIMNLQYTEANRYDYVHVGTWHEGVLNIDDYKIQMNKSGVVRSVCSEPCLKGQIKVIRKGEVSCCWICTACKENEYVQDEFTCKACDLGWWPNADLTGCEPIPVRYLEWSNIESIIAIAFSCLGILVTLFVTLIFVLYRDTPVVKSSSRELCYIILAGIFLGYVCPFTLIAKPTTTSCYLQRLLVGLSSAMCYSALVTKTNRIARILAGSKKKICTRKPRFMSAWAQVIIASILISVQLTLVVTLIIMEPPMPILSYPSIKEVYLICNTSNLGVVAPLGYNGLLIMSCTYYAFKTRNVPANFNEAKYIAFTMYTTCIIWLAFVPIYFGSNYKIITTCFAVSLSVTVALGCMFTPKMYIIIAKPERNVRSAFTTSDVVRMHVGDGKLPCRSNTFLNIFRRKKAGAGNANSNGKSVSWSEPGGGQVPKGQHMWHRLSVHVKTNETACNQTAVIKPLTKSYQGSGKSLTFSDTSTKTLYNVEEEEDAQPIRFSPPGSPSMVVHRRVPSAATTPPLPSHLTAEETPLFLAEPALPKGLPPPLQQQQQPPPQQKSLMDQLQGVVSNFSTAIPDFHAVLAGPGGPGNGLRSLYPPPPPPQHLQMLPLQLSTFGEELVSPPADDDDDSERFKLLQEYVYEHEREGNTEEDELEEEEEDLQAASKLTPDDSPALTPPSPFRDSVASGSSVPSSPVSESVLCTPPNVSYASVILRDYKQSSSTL
# MEASUREMENT_DESCRIPTION: Tested for […] in non-neuronal cells (RGT) expressing human Metabotropic glutamate receptor 1 by measuring ACPD (100 uM)-stimulated phosphoinositide hydrolysis
pIC50: −log10 of the molar value.
METRIC: pIC50

SMILES_STR	REPORTED_RESULT
N[C@@H](C[C@H](CC(c1ccccc1)c1ccccc1)C(=O)O)C(=O)O	< 3.52
N[C@@H](C[C@H](CCCC(c1ccccc1)c1ccccc1)C(=O)O)C(=O)O	< 3.52

====

pIC50 listing for selected compounds.
# MEASUREMENT_DESCRIPTION: Inhibitory activity towards group 2 metabotropic glutamate receptor by displacement of ACPD-sensitive [3H]- glutamate in rat forebrain membrane
# Format: cell membranes
pIC50: −log10 of the molar value.

COMPOUND	MEASUREMENT_QUALIFIER	pIC50
N[C@@H](C[C@@H](CCCc1ccccc1)C(=O)O)C(=O)O	=	4.68
Cc1ccc(C[C@@H](C[C@H](N)C(=O)O)C(=O)O)cc1	=	5.34
COc1cccc(C[C@@H](C[C@H](N)C(=O)O)C(=O)O)c1	=	5.03
N[C@@H](C[C@H](CC1CCC(c2ccccc2)CC1)C(=O)O)C(=O)O (stereo partly drawn)	=	5.49
Cc1ccc(C[C@H](C[C@H](N)C(=O)O)C(=O)O)cc1 (single isomer, unassigned)	=	5.11
N[C@@H](C[C@H](Cc1ccc(C(F)(F)F)cc1)C(=O)O)C(=O)O	=	5.50
N[C@@H](C[C@H](CCc1ccccc1)C(=O)O)C(=O)O	=	5.33
N[C@@H](C[C@@H](CCCCc1ccccc1)C(=O)O)C(=O)O	<	4.00
N[C@@H](C[C@@H](Cc1ccc(C(F)(F)F)cc1)C(=O)O)C(=O)O (single isomer, unassigned)	<	4.00
N[C@@H](C[C@H](Cc1ccc2ccccc2c1)C(=O)O)C(=O)O	=	5.48
N[C@@H](C[C@H](CCCCC(c1ccccc1)c1ccccc1)C(=O)O)C(=O)O	=	5.47
N[C@@H](C[C@@H](Cc1ccc2ccccc2c1)C(=O)O)C(=O)O (single isomer, unassigned)	=	5.05
N[C@@H](C[C@H](CCCc1ccccc1)C(=O)O)C(=O)O	=	5.74
N[C@@H](C[C@@H](CCc1ccccc1)C(=O)O)C(=O)O (single isomer, unassigned)	=	4.84
N[C@@H](C[C@H](CCCCc1ccccc1)C(=O)O)C(=O)O	=	5.33
N[C@@H](C[C@H](CCCCCc1ccccc1)C(=O)O)C(=O)O	=	5.60
N[C@@H](C[C@H](Cc1ccccc1)C(=O)O)C(=O)O	=	5.05
N[C@@H](C[C@H](CC1CCC(c2ccccc2)(c2ccccc2)CC1)C(=O)O)C(=O)O	=	5.85
